Species: Rattus norvegicus
Assay: Open TG-GATES - Regimen: Daily Repeat
Assay type: toxicity, organism-based, Sprague-Dawley
Design: regimen Daily Repeat, gender Male, age 6 weeks
Settings: in vivo, po, 1000 mg/kg, […], tissue Plasma, route gavage, dose level High, time 7 day
ASSAY_READOUT: Cl (meq/L)
Give the value, in units of meq/L, as a plain number.

Consider the worked cases shown below.
>>> result_number("CC(C)(S)[C@@H](N)C(=O)O")
104.4
>>> result_number("CCN1CCCC1CNC(=O)c1cc(S(N)(=O)=O)ccc1OC (centres undefined) [SULPIRIDE]")
103.2
>>> result_number("O=C(O)c1cccnc1")
104.8

Consider the molecule shown here: "O=C(N[C@H](CO)[C@H](O)c1ccc([N+](=O)[O-])cc1)C(Cl)Cl" What is its recorded Cl? 105.4
